These entries and their values trace back to patent US20250171542A1.

Target: human PD-L1 expressed on cell surface (human, UniProt Q9NZQ7 19-290)
Sequence (Q9NZQ7 19-290 limits assumed): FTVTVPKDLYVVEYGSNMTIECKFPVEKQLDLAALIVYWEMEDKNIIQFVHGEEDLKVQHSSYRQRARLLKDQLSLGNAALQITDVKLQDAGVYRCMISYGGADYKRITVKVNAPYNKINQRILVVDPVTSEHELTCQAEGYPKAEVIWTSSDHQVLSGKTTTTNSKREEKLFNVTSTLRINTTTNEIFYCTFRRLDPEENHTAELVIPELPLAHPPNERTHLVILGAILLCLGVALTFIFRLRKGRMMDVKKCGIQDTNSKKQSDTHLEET
Experiment: cell-based or functional assay
Observable: Internalization (%), FACS, 1 µg/ml, 2 h
Output spec: scalar in %, unitless text.

55H3/76D6 (antibody, human IgG1, V domains shown) VH: QEQLEESGGGLVQPEGSLTLTCTVSGFSFSGDYYMSWVRQAPGKGLEWVASIYTGSLNSYYATWAKGRFTISLTSSTTVTLQMTSLTAADTATYFCARRNKNADYGHFDLWGPGTLVTVSS VL: YDMTQTPASVEVAVGGTVTIKCQASESINDRLAWYQQKPGQPPKLLIYAASTLASGVPSRFRGSGSGTDFTLTISDLECADAATYYCQQGWTVSSLDNAFGGGTEVVAM : 22.1
69D10 (antibody, human IgG1, V domains shown) VH: QEQLEESGGGLVQPEGSLTLTCTASGFSFSGDWYMSWVRQAPGKGLEWIASIYSGSLNTYYATWAKGRFTVSLTSSTTVTLQMTSLTAADTATYFCARRNKNADYGHFDLWGPGTLVTVSS VL: YDMTQTPASVEVAVGGTVTIKCQASQSIGNALAWYQQKPGQPPKLLIYATSTLASGVPSRFKGSGSGTEFTLTISDLECGDAATYYCQQGWTVSSLDNAFGGGTEVVAK : 15.9

Query 32E2 (antibody, human IgG1, V domains shown) VH: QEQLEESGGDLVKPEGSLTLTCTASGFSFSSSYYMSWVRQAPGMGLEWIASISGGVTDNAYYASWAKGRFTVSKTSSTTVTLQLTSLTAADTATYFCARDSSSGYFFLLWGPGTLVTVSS VL: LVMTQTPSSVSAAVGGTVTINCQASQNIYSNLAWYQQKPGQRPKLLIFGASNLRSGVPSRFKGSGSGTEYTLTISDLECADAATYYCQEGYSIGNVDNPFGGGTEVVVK yields Internalization (%), FACS, 1 µg/ml, 2 h of 1.1
